In this section, each of the compounds is paired with its reported TGI.
System: SK-MEL-5 melanoma
Test: NCI tumour cell line growth inhibition, 48 h

# smiles-string, target-or-test-system, TGI, µM
records = [
    ("CCCCCCCCCCCCCCCCCC1=NC(C)(C)CN1C(C)(C)CO", "SK-MEL-5 melanoma", 3.07),
    ("COc1ccc2c(c1)c1ccc3c(c1n2C)C(=O)C=CC3=O", "SK-MEL-5 melanoma", 43.6),
    ("CC(=O)OC(OC(C)=O)c1c2ccccc2cc2ccccc12", "SK-MEL-5 melanoma", 25.8),
]

----------
In this section, each of the molecules is paired with its reported TGI.
System: U251 CNS
Assay: NCI tumour cell line growth inhibition, 48 h

# molecule, target-or-test-system, TGI
records = [
    ("COc1ccc2c(c1)c1ccc3c(c1n2C)C(=O)C=CC3=O", "U251 CNS", "36 µM"),
    ("Cc1cccc2c(=O)c3c(sc12)c(NCCCN)nc1ccccc13", "U251 CNS", "3.01 µM"),
    ("COc1cc(/C=C2\\N=C(c3ccccc3)N(c3nc4ccccc4s3)C2=O)cc(OC)c1OC", "U251 CNS", "> 100 µM"),
    ("CCOC(=O)C(=CNc1ccc(S(N)(=O)=O)cc1)C(=O)OCC", "U251 CNS", "> 100 µM"),
    ("C=C(C)[C@@H]1C/C=C(/COC(C)=O)CC[C@H]2O[C@@]2(C)CC/C=C(\\C)CC1", "U251 CNS", "> 100 µM"),
    ("O=C1C=CC(=O)c2c(O)c(NCCN3CCOCC3)c(Cl)c(O)c21", "U251 CNS", "6.97 µM"),
    ("Cc1cc(OP2(=O)NCc3ccncc3O2)ccc1Cl (stereo not given)", "U251 CNS", "> 100 µM"),
    ("Clc1ccc(-c2nnc(-c3nn(-c4ccccc4)c4nc5ccccc5nc34)o2)cc1", "U251 CNS", "> 100 µM"),
    ("O=C([O-])c1ccccc1Nc1ccccc1C(=O)[O-].[OH3+].[Zn+2]", "U251 CNS", "33 µM"),
    ("Cn1c2ccccc2c2c3c(c4c5ccccc5n(C)c4c21)C(=O)N(Cc1ccccc1)C3=O", "U251 CNS", "> 100 µM"),
    ("[Mn+3].[O-][Cl+3]([O-])([O-])O.[O-]c1ccccc1C=NCCN1CC1.[O-]c1ccccc1C=NCCN1CC1", "U251 CNS", "38.6 µM"),
    ("O=C(O)CN1CCN2CCCCCCCCN(CC1)CCN(CC(=O)O)CC2", "U251 CNS", "> 100 µM"),
    ("CN1C(c2ccccc2)CC(=NO)CC1c1ccccc1 (stereo not given)", "U251 CNS", "> 100 µM"),
    ("CC1=C/C(=N\\NS(=O)(=O)c2ccc([N+](=O)[O-])cc2)CC(C)(C)C1", "U251 CNS", "> 100 µM"),
    ("Cc1ccc(NC(=O)C(=O)C2C(=O)NC(=O)NC2=O)c(C)c1", "U251 CNS", "> 100 µM"),
]

----------
In this section, each of the molecules is paired with its reported TGI.
Tested on: A549 NSCLC
Assay: NCI tumour cell line growth inhibition, 48 h

# molecule, TGI
rows = [
    ("CCCC[C@H](CCc1ccccc1)N(C(=O)OC)N1CCC[C@H]1COC", "67.1 µM"),
    ("N#C[S-].[Ce+3].c1ccc(-c2ccccn2)nc1.c1ccc(-c2ccccn2)nc1.c1ccc(-c2ccccn2)nc1", "> 100 µM"),
    ("N#CC12CC(C=O)=C(N)C1(C#N)CC(C=O)=C2N (configuration not stated)", "> 100 µM"),
    ("Cn1c2ccccc2c2c3c(c4c5ccccc5n(C)c4c21)C(=O)N(Cc1ccccc1)C3=O", "> 100 µM"),
    ("N#CC1(C#N)C(=O)c2ccncc2C1=O", "> 100 µM"),
    ("N=C1c2ccccc2C(=O)c2c(NCCNCCO)ccc(O)c21", "22.6 µM"),
    ("C/C(CC(O)(C(F)(F)F)C(F)(F)F)=N\\NC(N)=S", "> 10 µM"),
]

----------
System: UO-31 renal
Experiment: NCI tumour cell line growth inhibition, 48 h

# molecule, TGI
records = [
    ("COc1ccc2cc(C(=O)N3CCC([C@@H](C)C(=O)NCc4ccc5c(c4)OCO5)CC3)[nH]c2c1", "> 100 µM"),
    ("N#CC12CC(C=O)=C(N)C1(C#N)CC(C=O)=C2N (centres undefined)", "> 100 µM"),
    ("CC1CCCc2c1n[nH]c2CC1CC(=O)NC(=O)C1 (centres undefined)", "> 100 µM"),
    ("C=C(C)[C@@]12C[C@H](OC(=O)[C@H](O)[C@@H](NC(=O)c3ccccc3)c3ccccc3)C(C)=C1[C@@H](OC(C)=O)C(=O)[C@@]1(C)C([C@@H]2OC(=O)c2cc(F)cc(F)c2)C2(OC(C)=O)CO[C@@H]2C[C@@H]1O (some centres undefined)", "> 10 µM"),
]

----------
System: SN12C renal
Assay: NCI tumour cell line growth inhibition, 48 h
In this section, each of the molecules is paired with its reported GI50.

# molecule, target-or-test-system, GI50
records = [
    ("COc1cccc(C2SC(C)C(=O)N2NC(=O)C(O)c2ccccc2)c1 (configuration not stated)", "SN12C renal", "> 100 µM"),
    ("Oc1c(CN2CCCCC2)ccc2cccnc12", "SN12C renal", "4.62 µM"),
    ("N#C[S-].[Ce+3].c1ccc(-c2ccccn2)nc1.c1ccc(-c2ccccn2)nc1.c1ccc(-c2ccccn2)nc1", "SN12C renal", "12.8 µM"),
    ("COC(=O)[C@@H](C)C[C@H](Cc1ccc(F)cc1)NC(=O)c1csc([C@@H](C[C@H](C(C)C)N(C)C(=O)[C@@H](NC(=O)[C@H]2CCCCN2C)C2CC2)OC(C)=O)n1", "SN12C renal", "0.357 µM"),
    ("[Mn+3].[O-][Cl+3]([O-])([O-])O.[O-]c1ccccc1C=NCCN1CC1.[O-]c1ccccc1C=NCCN1CC1", "SN12C renal", "19.4 µM"),
    ("Cn1cc(-c2ncnc3ccc(-c4cnc(Cl)c(NS(C)(=O)=O)c4)cc23)c2ccccc21", "SN12C renal", "0.856 µM"),
    ("CCCCCCCC(=O)Nc1nc2[nH]c(CN3CCN(Cc4cccc(I)c4)CC3)c(CN3CCN(Cc4cccc(I)c4)CC3)c2c(=O)[nH]1", "SN12C renal", "0.916 µM"),
]

----------
In this section, each of the molecules is paired with its reported TGI.
Test system: HOP-62 NSCLC
Test: NCI tumour cell line growth inhibition, 48 h

# molecule, TGI
measured = [
    ("COC(Cc1cc(C(O)(c2ccc(C(C)(C)C)cc2)c2cc(CC(OC)(c3cc(C(OC)(c4ccc(C(C)(C)C)cc4)c4ccc(C(C)(C)C)cc4)c(C)cc3C)c3cc(C(OC)(c4ccc(C(C)(C)C)cc4)c4ccc(C(C)(C)C)cc4)c(C)cc3C)c(C)cc2C)c(C)cc1C)(c1cc(C(OC)(c2ccc(C(C)(C)C)cc2)c2ccc(C(C)(C)C)cc2)c(C)cc1C)c1cc(C(OC)(c2ccc(C(C)(C)C)cc2)c2ccc(C(C)(C)C)cc2)c(C)cc1C", "> 75 µM"),
    ("C=CCN=C1NC(=O)C(CC(=O)Nc2cccc(Cl)c2)S1 (stereo not given)", "> 100 µM"),
    ("OCC1CC2C=CCC(C2)C1 (stereo not given)", "> 100 µM"),
    ("NC(=O)c1ccc(I)c([N+](=O)[O-])c1", "> 100 µM"),
    ("C/C(=N\\N)C(CN1CCOCC1)C(c1ccccc1)c1c(O)c2ccccc2oc1=O (stereo not given)", "> 100 µM"),
]

----------
In this section, each of the molecules is paired with its reported TGI.
System: NCI-H522 lung
Experiment: NCI tumour cell line growth inhibition, 48 h
readout-label: TGI

# molecule, result
records = [
    ("COC1CC(O[C@H]2CC[C@@]3(C)C(=CCC4(O)C3CCC35C(=O)OC6(C)O[C@@]43CCC65)C2)OC(C)C1O (stereo partly drawn)", "> 100 µM"),
    ("NS(=O)(=O)c1ccc(N=Nc2ccc(O)cc2)cc1", "> 100 µM"),
    ("CN1CCN(c2ccncc2S(=O)(=O)N2CCN(C)CC2)CC1", "> 100 µM"),
]

----------
Test system: EKVX NSCLC
Assay: NCI tumour cell line growth inhibition, 48 h
In this section, each of the compounds is paired with its reported TGI.
readout-label: TGI

# compound, readout-label, result
records = [
    ("Oc1ccc(Br)cc1C=NC1CCCCC1", "TGI", "> 100 µM"),
    ("[N-]=[N+]=C1C(=O)C2CC3CC1CC2C3 (stereo not given)", "TGI", "> 100 µM"),
    ("CC(C)(Oc1ccc2c(=O)cc(-c3ccc(Cl)cc3)oc2c1)C(=O)Nc1c(Cl)cccc1Cl", "TGI", "> 100 µM"),
    ("CCCNC(=O)Cn1c2c(c3ccccc31)CCCC2", "TGI", "> 100 µM"),
    ("O=C(/C=C/c1ccc(-c2ccccc2)cc1)c1ccccc1", "TGI", "50.8 µM"),
    ("COc1ccc(/C=C/c2cc(OC)c(OC)c(OC)c2)cc1OC", "TGI", "> 100 µM"),
    ("Cc1ccccc1SC(/C=C/NNC1=NC(c2ccccc2)C(c2ccccc2)=NN1)c1ccccc1 (stereo not given)", "TGI", "> 100 µM"),
    ("Cn1c2ccccc2c2c3c(c4c5ccccc5n(C)c4c21)C(=O)N(Cc1ccccc1)C3=O", "TGI", "> 100 µM"),
    ("COc1nc2c(c(=O)n1C)CN(c1ccccc1)C(=O)CN2C", "TGI", "> 100 µM"),
    ("COc1ccc(N[C@H](CS(=O)c2ccc(C)cc2)C(F)(F)F)cc1 (stereo not given in full)", "TGI", "> 100 µM"),
    ("COC(=O)[C@H](Cc1ccccc1)NC(=O)OCC1OC(n2cc(C)c(=O)[nH]c2=O)CC1N=[N+]=[N-] (stereo not given in full)", "TGI", "> 100 µM"),
    ("CC(=O)O[C@H]1CC[C@@]2(C)C(=CC[C@H]3C(CC#N)[C@@](C)(C#N)CCC32)C1 (stereo not given in full)", "TGI", "> 100 µM"),
    ("CC1(C)CC[C@]2(C(=O)NCCNCCN)CC[C@]3(C)C(=CC[C@@H]4[C@@]5(C)CCC(=O)C(C)(C)[C@@H]5CC[C@]43C)[C@@H]2C1", "TGI", "3.67 µM"),
    ("COc1ccc(C/C=C(\\C)CCO)cc1", "TGI", "> 100 µM"),
    ("CCN(CC)CCOCCOCC1(c2ccc(Cl)c(Cl)c2)CCCCC1", "TGI", "23 µM"),
    ("CC(C)(C)c1ccc(NS(=O)(=O)c2ccc(N)cc2)cc1", "TGI", "71.8 µM"),
    ("CC(C)(C)c1cc[n+](C[n+]2ccc(C(C)(C)C)cc2)cc1", "TGI", "> 100 µM"),
    ("CCC(CO)Nc1nc(NCc2ccccc2)c2n[nH]c(C(C)C)c2n1 (stereo not given)", "TGI", "27.4 µM"),
    ("C/C(COc1ccc2oc(-c3ccccc3)cc(=O)c2c1)=N\\O", "TGI", "26.6 µM"),
    ("Cn1c(=O)nc2n(-c3ccc(F)c(F)c3)c3ccccc3nc-2c1=O", "TGI", "17.7 µM"),
]
